- Tested on: SNB-19 CNS
- Assay overview: NCI tumour cell line growth inhibition, 48 h
Readout kind: TGI

Compound	Readout kind	Value observed
CC[C@@H]1ON(C)[C@H]2CN(C)C(=O)[C@@H]12	TGI	> 100 µM
CC[C@@H]1[C@@H](C)O[C@@](O)([C@@H](C)[C@H](O)[C@H](C)[C@H]2OC(=O)/C=C/C=C/[C@H](C)[C@@H]([C@@H](C)[C@@H](O)[C@H](C)[C@@]3(O)C[C@@H](O[C@H]4C[C@@H](O)[C@H](O)C(C)O4)[C@H](CC)[C@@H](C)O3)OC(=O)/C=C/C=C/[C@@H]2C)C[C@H]1O[C@@H]1C[C@@H](O)[C@H](O)C(C)O1 (stereo partly drawn)	TGI	0.212 µM
COc1ccc(OC(C)=O)c2c1CCC=CC2=O	TGI	31.4 µM
COc1ccc(C(=O)Nc2ncc(Cc3cccc(Cl)c3)s2)cc1OC	TGI	> 100 µM
COc1ccc2c(c1)[n+]([O-])c(-c1ccc([N+](=O)[O-])cc1)c(N)[n+]2[O-]	TGI	> 100 µM
Nc1cc(F)ccc1CC(=O)O	TGI	> 100 µM
Nc1nc2c(ncn2C2CCC(CO)O2)c(=O)n1C(=O)c1ccccc1 (stereo not drawn)	TGI	> 100 µM
CCCCCCCCOCC(O)COC(C)C (stereo not drawn)	TGI	> 100 µM
